molecular target: Metabotropic glutamate receptor 5 (Homo sapiens, UniProt P41594); assay: Positive allosteric modulation of human mGlu5 expressed in HEK293 cells assessed as glutamate-induced calcium mobilization relative to glutamate; assay type: functional, cell-based
Sequence (P41594 21-1212 limits assumed): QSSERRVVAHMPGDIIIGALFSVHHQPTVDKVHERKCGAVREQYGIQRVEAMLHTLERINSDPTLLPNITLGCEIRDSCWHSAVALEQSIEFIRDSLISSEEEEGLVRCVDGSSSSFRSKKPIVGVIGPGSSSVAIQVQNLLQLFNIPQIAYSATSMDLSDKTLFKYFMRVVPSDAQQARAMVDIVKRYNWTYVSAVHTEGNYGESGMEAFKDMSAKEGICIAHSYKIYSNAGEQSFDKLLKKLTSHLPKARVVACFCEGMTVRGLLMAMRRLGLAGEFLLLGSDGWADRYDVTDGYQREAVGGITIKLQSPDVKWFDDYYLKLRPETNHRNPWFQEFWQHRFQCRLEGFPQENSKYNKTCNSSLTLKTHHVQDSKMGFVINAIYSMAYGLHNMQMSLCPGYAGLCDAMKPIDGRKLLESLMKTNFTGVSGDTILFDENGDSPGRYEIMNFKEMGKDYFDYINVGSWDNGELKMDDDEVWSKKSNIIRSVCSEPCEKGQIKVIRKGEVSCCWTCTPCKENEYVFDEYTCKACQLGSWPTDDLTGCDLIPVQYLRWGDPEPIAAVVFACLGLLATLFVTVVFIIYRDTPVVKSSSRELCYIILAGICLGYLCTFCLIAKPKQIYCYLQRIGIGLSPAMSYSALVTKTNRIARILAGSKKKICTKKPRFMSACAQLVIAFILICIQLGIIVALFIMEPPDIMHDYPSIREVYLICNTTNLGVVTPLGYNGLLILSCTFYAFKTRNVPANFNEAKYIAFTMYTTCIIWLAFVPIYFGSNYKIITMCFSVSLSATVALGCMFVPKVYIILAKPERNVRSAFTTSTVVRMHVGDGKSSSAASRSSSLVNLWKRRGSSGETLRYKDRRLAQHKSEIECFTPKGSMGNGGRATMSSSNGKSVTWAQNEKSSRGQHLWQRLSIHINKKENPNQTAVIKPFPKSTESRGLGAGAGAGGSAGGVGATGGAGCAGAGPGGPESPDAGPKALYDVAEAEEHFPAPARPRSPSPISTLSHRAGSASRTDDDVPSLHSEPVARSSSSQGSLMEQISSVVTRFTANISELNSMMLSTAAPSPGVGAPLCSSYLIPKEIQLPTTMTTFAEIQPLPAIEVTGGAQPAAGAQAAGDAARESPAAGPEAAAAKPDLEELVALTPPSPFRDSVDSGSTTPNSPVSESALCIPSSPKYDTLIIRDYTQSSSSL
PROPERTY_LABEL: Emax (%)
Give just the numeric value; % need not be written.

Ask: Could you tell me which Emax is on file for "O=C1c2cc(COc3ccccc3)nn2CCN1c1ccccn1" ?
Result: 69

Ask: Another: "O=C1c2cc(COc3ccncc3)nn2CCN1c1ccc(F)cc1"
Result: 69

Ask: What about "O=C1c2cc(COc3ccccn3)nn2CCN1c1ccc(F)cc1" ?
Result: 68
